# Protocol Text: viability profiling in RPMI8226 myeloma cells – cell-based, resazurin fluorescence, basal, 24 h, PK04 Diversity Set, profiling panel (AID 1180);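 note: RPMI8826 multiple myeloma cell line at 5000 cells per well; test concentration not given here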
# Particulars: higher = more signal
Give t when the value for z-score is at least -0.06. Give f when it is less.

Entry Smiles	Label Class
COCCOC(=O)N1C(=O)[C@@]2(c3cc(C#Cc4ccc(OC)cc4)ccc31)[C@H](c1ccc(OCCO)cc1)N1[C@H](c3ccccc3)[C@H](c3ccccc3)OC(=O)[C@H]1[C@@H]2C(N)=O	f

Assess whether reported z-score for [N-]=[N+]=NCc1ccccc1[C@H]1OC(c2ccc(OCCCO)cc2)=N[C@@]1(Cc1ccccc1N=[N+]=[N-])C(=O)NCCN1CCOCC1 sits at -0.06 or higher.
f

Assess whether reported z-score for CC(C)N1C(=O)c2ccccc2[C@](C)(C(=O)O)[C@@H]1c1ccc(CO)cc1 sits at -0.06 or higher.
t

Assess whether reported z-score for O=C1O[C@H](c2ccccc2)[C@H](c2ccccc2)N2[C@H]1[C@@H](C(=O)N1CCN(c3ncccn3)CC1)[C@]1(C(=O)Nc3ccc(C#CCCO)cc31)[C@H]2c1ccccc1OCCO sits at -0.06 or higher.
f

Assess whether reported z-score for [N-]=[N+]=Nc1ccccc1[C@H]1OC(c2ccc(OCCCO)cc2)=N[C@@]1(Cc1ccccc1)C(=O)NCc1ccccc1 sits at -0.06 or higher.
f
